# measurementTarget: TNIK kinase [amino acid sequence (1-367), Invitrogen] (Homo sapiens, UniProt Q9UKE5)
# Sequence (Q9UKE5 1-367): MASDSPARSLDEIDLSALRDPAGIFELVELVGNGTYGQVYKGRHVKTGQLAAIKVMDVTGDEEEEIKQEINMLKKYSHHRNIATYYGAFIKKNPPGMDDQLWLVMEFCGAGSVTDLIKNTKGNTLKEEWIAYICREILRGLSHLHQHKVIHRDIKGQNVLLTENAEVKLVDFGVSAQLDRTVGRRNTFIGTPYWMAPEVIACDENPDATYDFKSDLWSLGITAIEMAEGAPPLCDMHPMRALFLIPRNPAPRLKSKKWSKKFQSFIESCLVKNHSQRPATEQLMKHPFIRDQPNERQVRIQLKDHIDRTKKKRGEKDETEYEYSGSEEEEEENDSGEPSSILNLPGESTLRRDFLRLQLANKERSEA
parameterMeasured: IC50

Below: 5 molecules and their reported IC50.
>  <itemSmiles>
CN1C2CC1CN(c1ccc(NC(=O)c3c[nH]c(-c4c(-c5ccc(F)cc5)ncn4C4CC4)n3)nc1)C2

>  <parameterMeasured>
IC50

>  <reportedValue>
0.012 to 0.15 µM

$$$$
>  <itemSmiles>
CC(C)c1noc(-c2ccc(F)cc2)c1-c1nc(C(=O)Nc2ccc(N3CC4CC(C3)N4C)cc2F)cs1

>  <parameterMeasured>
IC50

>  <reportedValue>
0.001 to 0.012 µM

$$$$
>  <itemSmiles>
CC(C)n1cnc(-c2ccc(F)cc2)c1-c1nc(C(=O)Nc2ccc(N3C[C@H]4CC[C@@H](C3)N4C)cn2)co1

>  <parameterMeasured>
IC50

>  <reportedValue>
0.001 to 0.012 µM

$$$$
>  <itemSmiles>
CC(C)c1onc(-c2ccc(F)cc2)c1-c1nc(C(=O)Nc2ccc(N3CC4CC(C3)N4C)cn2)co1

>  <parameterMeasured>
IC50

>  <reportedValue>
0.012 to 0.15 µM

$$$$
>  <itemSmiles>
CN1C2CC1CN(c1ccc(NC(=O)c3csc(-c4c(-c5ccc(F)cc5)ncn4C4CC(F)(F)C4)n3)nc1)C2

>  <parameterMeasured>
IC50

>  <reportedValue>
0.001 to 0.012 µM

$$$$

Bench note, TNIK kinase [amino acid sequence (1-367), Invitrogen] (Homo sapiens, UniProt Q9UKE5): CC(C)n1cnc(-c2ccc(F)cc2)c1-c1nc(C(=O)Nc2ccc(C3CN(C)C3)cc2F)co1 , IC50 reads 0.001 to 0.012 µM

Summary: O=C(Nc1ccc(N2CCOCC2)cn1)c1coc(-c2c(-c3ccc(F)cc3)ncn2C2COC2)n1 , TNIK kinase [amino acid sequence (1-367), Invitrogen] (Homo sapiens, UniProt Q9UKE5), IC50 = > 0.15 µM

---

# collection of IC50 values tested on TNIK kinase [amino acid sequence (1-367), Invitrogen] (Homo sapiens, UniProt Q9UKE5)

>  <compound>
[2H]C([2H])([2H])N1CC(c2ccc(NC(=O)c3csc(-c4c(C(C)C)cnn4-c4ccc(F)cc4)n3)nc2)C1

>  <parameterMeasured>
IC50

>  <reportedValue>
1 to 12 nM

$$$$

# IC50 (compound: O=C(Nc1ccc(N2CCC2)cn1)c1c[nH]c(-c2c(-c3ccc(F)cc3)ncn2C2CC(F)(F)C2)n1 ) is 12 to 150 nM

Sure, the documented IC50 for [2H]C(C)(C)n1cnc(-c2ccc(F)cc2)c1-c1nc(C(=O)Nc2ccc(N3CCN(CC)CC3)cc2)c[nH]1 is 12 to 150 nM

Looking up [2H]C([2H])([2H])N1CC(c2ccc(NC(=O)c3nc(-c4c(-c5ccc(F)cc5)ncn4C4CCC4)cs3)nc2)C1 , I found its IC50 recorded as 1 to 12 nM

// CN1C2CC1CN(c1ccc(NC(=O)c3csc(-c4c(-c5ccc(F)cc5)ncn4C4CC4)n3)nc1)C2 : IC50 value = 1 to 12 nM

---

# measurementTarget: TNIK kinase [amino acid sequence (1-367), Invitrogen] (Homo sapiens, UniProt Q9UKE5)
Catalogue of IC50 values

>  <molecule>
CC(C)n1cnc(-c2ccc(F)cc2)c1-c1nc(C(=O)Nc2ccc(N3CC4CC(C3)N4C)cc2)c[nH]1

>  <reportedValue>
1 to 12 nM

$$$$
>  <molecule>
CC(C)n1cnc(-c2ccc(F)cc2)c1-c1nc(C(=O)Nc2ccc(C3COC3)cc2F)cs1

>  <reportedValue>
1 to 12 nM

$$$$
>  <molecule>
[2H]C([2H])([2H])N1CCN(c2ccc(NC(=O)c3c[nH]c(-c4c(-c5ccc(F)cc5)ncn4C(C)C)n3)nc2)CC1

>  <reportedValue>
1 to 12 nM

$$$$
>  <molecule>
O=C(Nc1ccc(N2CCOCC2)cn1)c1coc(-c2c(-c3ccc(F)cc3)ncn2C2CC(F)(F)C2)n1

>  <reportedValue>
12 to 150 nM

$$$$
>  <molecule>
CC(C)n1cnc(-c2ccc(F)cc2)c1-c1nc(C(=O)Nc2ccc(C3C[C@H]4CC[C@@H](C3)N4C)cn2)cs1 (some centres unmarked)

>  <reportedValue>
1 to 12 nM

$$$$
>  <molecule>
CN1CCN(c2ccc(NC(=O)c3c[nH]c(-c4c(-c5ccc(F)cc5)ncn4C4CC4)n3)cc2)CC1

>  <reportedValue>
12 to 150 nM

$$$$

// field: IC50; key: [2H]C([2H])([2H])N1CC(c2ccc(NC(=O)c3nc(-c4c(-c5ccc(F)cc5)ncn4C4CCC4)cs3)c(F)c2)C1 ; value = 1 to 12 nM

response.value for CN1C2CC1CN(c1ccc(NC(=O)c3coc(-c4c(-c5ccc(F)cc5)ncn4C4CC(F)(F)C4)n3)c(F)c1)C2 (field: IC50) = 1 to 12 nM
